# study.system: SARS-2 RBD (wild-type SARS-CoV-2 receptor binding domain, monomer) (SARS-CoV-2, UniProt P0DTC2 319-529)
# procedure.details: BLI with recombinant Fabs, drawn table of KD (µM)
readout.kind: pKd
The read-out pKd is expressed as -log10 of concentration in moles per litre.

binder: Ab20 Fab (Fab, V domains shown) VH: EVQLQQSGPELVKPGASVKISCKASGFSFTGYSMNWMKQSPEKSLEWIGEINPTTGGTTYNQKFKAKATLTVDKSSSTAYIQLKSLTSEDSAVYYCARGRADYWGQGTTLTVSS VL: DIVLTQSPASLAVSLGQRATISCRASESVEYYGTGLVQWFQQKPGQPPKLLIYAASNVESGVPARFSGSGSGTDFSLNIHSVEEDDIAMYFCHQSRKLPWTFGGGTKLEIK
pKd: 7.52

Please look up its pKd: Ab17 Fab (Fab, V domains shown) VH: EVQLQQSGPELVKPGASVKISCKASGYSFTDYYMNWVKQSPEKSLEWIGEINPNTGGTTYNQKFKAKATLTVDKSSSTAYMQLKSLTSEDSAVYYCARYYGNLYAMDYWGQGTSVTVSS VL: DILMTQSPSSMSVSLGDTVSITCHASQGISSNIGWLQQKPGKSFKGLIYHGTNLEDGVPSRFSGSGSGADYSLTISSLESEDFADYYCVQYVQFPYTLGGGTKLEIK
7.15
